Test system: primary human hepatic stellate cells (donor 1)
Assay: scaled lipid accumulation score (0 = DMSO-like, 1 = nortriptyline-like); higher = stronger HSC inactivation (lipid re-accumulation), active = hit call of the paper
Details: library stock concentration: 3.33 mM; 48 h
Structures can show the parent of a compound that is named as a salt. The campaign covered roughly 5,800 compounds. About 620 (11%) showed activity. This is one part of a sample in which actives are shown more often than they occur.
Reported scaled lipid accumulation score values follow for various molecules

Solved cases below.
> print(dat)
                                   molecule                   endpoint.label      meas.value
1  CC1(C)O[C@H]2CC(=O)OC[C@]23[C@H]2CC[C@@]4(C)[C@H](c5ccoc5)OC(=O)[C@H]5O[C@]54[C@]2(C)C(=O)C[C@@H]13 [Limonin]  scaled lipid accumulation score  ≤ 0 (inactive)
2             COc1cc2ncc(-c3ccccc3)nc2cc1OC  scaled lipid accumulation score  ≤ 0 (inactive)

Consider the molecule COc1cc(OC)c(/C=C/S(=O)(=O)Cc2ccc(OC)c(NCC(=O)O)c2)c(OC)c1 and give its recorded scaled lipid accumulation score. 0.068 (inactive)

Consider the molecule O=C(c1ccc(OCCN2CCCCC2)cc1)c1c(-c2ccc(O)cc2)sc2cc(O)ccc12 [Raloxifene HCl] and give its recorded scaled lipid accumulation score. ≤ 0 (inactive)

* * *

Tested on: primary human hepatic stellate cells (donor 1)
Assay: scaled lipid accumulation score (0 = DMSO-like, 1 = nortriptyline-like); higher = stronger HSC inactivation (lipid re-accumulation), active = hit call of the paper
Conditions: library stock concentration: 3.33 mM; 48 h
Counter-ions that a name gives are not always drawn. Out of some 5,800 compounds screened, about 620 (11%) showed activity.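 How the source made its calls: active = score above a cut-off or among the top three wells of a plate; in these data no inactive exceeds 0.85.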 This is one part of a sample in which actives are shown more often than they occur.
Thanks in advance; please answer with one of these: active, inactive

Worked cases, answers included:
Compound	Assigned Class
CN1CCCC(n2nc(Cc3ccc(Cl)cc3)c3ccccc3c2=O)CC1 (configuration not stated) [Azelastine HCl]	inactive
Nc1nccc(-c2c(-c3ccc(F)cc3)ncn2C2CCNCC2)n1	inactive
COc1cc2ncc(-c3ccccc3)nc2cc1OC [Tyrphostin AG 1296]	inactive
CN(C)S(=O)(=O)c1ccc2c(c1)/C(=C/c1cc3c([nH]1)CCCC3)C(=O)N2	inactive
C=C[C@]1(C)C[C@@H](OC(=O)CS[C@@H]2C[C@H]3CC[C@@H](C2)N3C)[C@]2(C)[C@H](C)CC[C@]3(CCC(=O)[C@H]32)[C@@H](C)[C@@H]1O	inactive
Cc1ccc(CNc2ncnc3ccc(-c4ccc(CO)o4)cc23)o1	inactive

Kindly provide the recorded test outcome for the following compound: Cc1cc(CN2CCN(c3c(Br)cnc4[nH]c(-c5ccc(N6CCN(C)CC6)cc5)nc34)CC2)no1 active

Kindly provide the recorded test outcome for the following compound: N#C[C@@H]1C[C@@H]2C[C@@H]2N1C(=O)[C@@H](N)C12CC3CC(CC(O)(C3)C1)C2 inactive

Kindly provide the recorded test outcome for the following compound: Cc1ccc(-c2c(-c3nn(C)c4ncnc(N5CC[C@H](N6CCCCC6)C5)c34)cnn2C)cc1 inactive

Kindly provide the recorded test outcome for the following compound: O=C1Nc2ccc(Br)cc2/C1=C/c1cc2c([nH]1)CCCC2 inactive

Kindly provide the recorded test outcome for the following compound: CCC(=O)Nc1ccc2ncnc(Nc3cccc(Br)c3)c2c1 inactive

Kindly provide the recorded test outcome for the following compound: Cc1ccc(C(=O)NCCCCCC(=O)Nc2ccccc2N)cc1 inactive

Kindly provide the recorded test outcome for the following compound: Cc1nc(N)sc1-c1ccnc(Nc2ccc(N3CCOCC3)cc2)n1 inactive
